measured-target: CD45 (Homo sapiens, UniProt P08575)
Construct: incubating the cytosolic portion of CD45 with the compounds and p-nitrophenyl phosphate (pNPP); purchased BIOMOL (Plymouth Meeting, Pa.)
Sequence (P08575 599-1306 limits assumed): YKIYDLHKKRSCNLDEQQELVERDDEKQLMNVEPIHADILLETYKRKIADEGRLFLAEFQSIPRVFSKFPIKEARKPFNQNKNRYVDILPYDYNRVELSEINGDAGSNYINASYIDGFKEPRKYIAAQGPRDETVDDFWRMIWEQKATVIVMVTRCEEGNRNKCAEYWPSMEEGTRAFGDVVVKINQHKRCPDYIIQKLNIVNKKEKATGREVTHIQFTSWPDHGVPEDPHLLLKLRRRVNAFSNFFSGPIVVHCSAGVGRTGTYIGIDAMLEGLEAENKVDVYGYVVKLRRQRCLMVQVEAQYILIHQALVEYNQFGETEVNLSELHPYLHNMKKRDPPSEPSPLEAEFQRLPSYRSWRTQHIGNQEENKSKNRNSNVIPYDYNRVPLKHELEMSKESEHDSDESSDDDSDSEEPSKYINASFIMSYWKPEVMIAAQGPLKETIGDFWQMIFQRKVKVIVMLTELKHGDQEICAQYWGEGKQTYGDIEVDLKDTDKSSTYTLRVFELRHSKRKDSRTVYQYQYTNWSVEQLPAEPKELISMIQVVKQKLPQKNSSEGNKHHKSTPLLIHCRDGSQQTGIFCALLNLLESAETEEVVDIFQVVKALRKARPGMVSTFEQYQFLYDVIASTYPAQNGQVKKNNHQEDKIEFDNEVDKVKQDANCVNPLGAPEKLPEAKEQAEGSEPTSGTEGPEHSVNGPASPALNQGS
measurement-protocol: Phosphatase assay using lck 10-mer as substrate
Type: biochemical
reported-conditions: CD45 phosphatase, lck carboxy-terminal peptide TEGQpYQPQP substrate, pH 7.2; read-out: Ick IC50
Where a SMILES comes first, the peptide text is derived from it. The star is where a group is joined. 3Phenanthroyl(9,10-dioxo) = O=C1C(=O)c2ccc(C(=O)*)cc2-c2ccccc21
result-type: pIC50
Conceptually, pIC50 converts a concentration in mol/L into minus its log10.

Below are worked cases with known answers.
| compound | measured-target | recorded-result |
| --- | --- | --- |
| COC(=O)CCC(=O)Nc1cccc2c1C(=O)C(=O)c1ccccc1-2 [Example 91] | CD45 (Homo sapiens, UniProt P08575) | 5.33 |
| NC(=O)CC[C@H](NC(=O)c1ccc2c(c1)-c1ccccc1C(=O)C2=O)C(=O)N[C@@H](CCC(N)=O)C(=O)N1CCC[C@H]1C(=O)N[C@@H](CCC(N)=O)C(=O)NCC(=O)O [Example 37] ({3Phenanthroyl(9,10-dioxo)}-QQPQG-OH) | CD45 (Homo sapiens, UniProt P08575) | 5.68 |
| NC(=O)CC[C@H](NC(=O)[C@@H]1CCCN1C(=O)[C@H](CCC(=O)O)NC(=O)CNC(=O)c1ccc2c(c1)-c1ccccc1C(=O)C2=O)C(=O)NCC(=O)O [Example 38] ({3Phenanthroyl(9,10-dioxo)}-GEPQG-OH) | CD45 (Homo sapiens, UniProt P08575) | 5.66 |
| O=C(COCc1ccccc1)Nc1ccc2c(c1)C(=O)C(=O)c1ccccc1-2 [Example 2] | CD45 (Homo sapiens, UniProt P08575) | 4.96 |
| O=C1C(=O)c2cccc([N+](=O)[O-])c2-c2ccccc21 [Example 93, 4-Nitro-phenanthrene-9,10-dione] | CD45 (Homo sapiens, UniProt P08575) | 5.41 |

Shifting focus to the compound that follows.
(Q) Fill blank: measured pIC50 of the compound O=C1C(=O)c2cc(NC(=O)c3c(Cl)cc(Cl)cc3Cl)ccc2-c2ccccc21 [Example 6] is ____.
(A) 4.80

The measured values listed here are drawn from patent US20030207812A1.
